Entry source: PubChem BioAssay (Tox21)

procedureDetails: qHTS assay to identify small molecule antagonists of the estrogen receptor alpha (ER-alpha) signaling pathway using the BG1 cell line - cell viability counter screen (AID 743081);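 also: compound given together with 17beta-estradiol as the ER stimulus; nearly all actives have a fitted effect of over 45% in size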
assayContext: BG1Luc4E2 viability, CellTiter-Fluor, 22 h; series mostly up to 70.3 µM
Inconclusive results are not listed. Active and inactive are the calls of the source. Calls follow the shape of the dose curve; as a rule, active = well fitted cell-killing curve with a large enough effect in the repeat runs; inconclusive = weak or mixed curves, or effect the other way; inactive = flat fitted curve, though single readings scatter.
observable: activity change, negative = cytotoxicity

- compound: "CCCCOCCOCCOCCCC"
  observable: "activity change, negative = cytotoxicity"
  reportedMeasurement: "inactive"
- compound: "CC1=CC(C)C(C=O)CC1 (stereo not drawn)"
  observable: "activity change, negative = cytotoxicity"
  reportedMeasurement: "inactive"
- compound: "COC(=O)NN"
  observable: "activity change, negative = cytotoxicity"
  reportedMeasurement: "inactive"
- compound: "CC(=O)Nc1ccc(S(N)(=O)=O)cc1"
  observable: "activity change, negative = cytotoxicity"
  reportedMeasurement: "inactive"
- compound: "COC(=O)c1c(Cl)c(Cl)c(C(=O)OC)c(Cl)c1Cl"
  observable: "activity change, negative = cytotoxicity"
  reportedMeasurement: "inactive"
- compound: "O=C1CCCCCCCCCCCN1"
  observable: "activity change, negative = cytotoxicity"
  reportedMeasurement: "inactive"
- compound: "O=C[C@H](O)[C@@H](O)[C@H](O)[C@H](O)CO"
  observable: "activity change, negative = cytotoxicity"
  reportedMeasurement: "inactive"

In plain terms, CC(C)(c1ccc(O)cc1)c1ccc(O)cc1 has a documented activity change, negative = cytotoxicity of inactive
